Origin of values: ChEMBL document CHEMBL1150793

We begin with a simple list: items and their reported MIC50.
Tested on: Mucor
ASSAY_PROCEDURE: Antimicrobial activity against Mucor sp. after 24 hrs
Format: functional
Your answer should be a plain number; it is taken to be in mg/L.

COMPOUND: CCC(C)n1ncn(-c2ccc(N3CCN(c4ccc(OC[C@H]5CO[C@](Cn6cncn6)(c6ccc(Cl)cc6Cl)O5)cc4)CC3)cc2)c1=O (some centres not stated)
MIC50 / mg/L: 0.5
--
COMPOUND: C[C@@H]1[C@H](O)[C@@H](C)/C=C/C=C/C=C/C=C/C=C/C=C/C=C/[C@H](O[C@@H]2O[C@H](C)[C@@H](O)[C@H](N)[C@@H]2O)C[C@@H]2O[C@](O)(C[C@@H](O)C[C@@H](O)[C@H](O)CC[C@@H](O)C[C@@H](O)CC(=O)O[C@H]1C)C[C@H](O)[C@H]2C(=O)O
MIC50 / mg/L: 0.25

Now let's try a different one.
Query: For the record CC[C@@H]([C@H](C)O)n1ncn(-c2ccc(N3CCN(c4ccc(OC[C@@H]5CO[C@@](Cn6cncn6)(c6ccc(F)cc6F)C5)cc4)CC3)cc2)c1=O , what value of MIC50 is listed for Mucor?
Response: 0.5
